target: Inadl_8, Q8NI35; assay: holdup assay; parameters: key: below the threshold = too weak to quantify, mostly under pKd 3.1 to 4; details: plain residues with an end cap or a label only (N-terminal biotin on a linker: ttds)
Sequence (Q8NI35 1425-1530): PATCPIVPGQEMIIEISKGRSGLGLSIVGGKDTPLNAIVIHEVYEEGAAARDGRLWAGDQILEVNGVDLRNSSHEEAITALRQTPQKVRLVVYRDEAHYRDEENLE
Quantity measured: pKd

Example results:
INSERT INTO results (binder, quantity_measured, recorded_measurement) VALUES
  ('VDFPPKESSL [ACVR2A, P27037]', 'pKd', 'below the threshold'),
  ('EVVHTPETSV [SLC16A3, O15427]', 'pKd', 'below the threshold'),
  ('QRQARSETLV [HPV59-E6, Q81964]', 'pKd', 'below the threshold'),
  ('SSLQSLETSV [ATP2B4, P23634]', 'pKd', 3.54),
  ('KKYVDAETSL [SLC4A7, Q9Y6M7]', 'pKd', 'below the threshold');

Endpoint output: pKd of RLPKIKETTV [FRMPD4, Q14CM0] . Value?
3.98

Now give it for RLQRRRETQV [HPV18-E6, P06463] too.
3.32

Follow-up entry: DKDPHSETAL [TMIGD1, Q6UXZ0]
below the threshold
